Data provenance: ChEMBL document CHEMBL2021913

test system: Escherichia coli; assay: Antimicrobial activity against Escherichia coli 2109 at 35 degC after 18 to 24 hrs by NCCLS method based antimicrobial assay; assay type: functional; settings: read-out: MBC99.9
Can you tell me MBC for the items I'm about to list?
The answer consists of two parts: a number and, after it, its unit.

Exercise: Quick one: MBC of `FC(F)(F)c1cc(/C(Cn2nnc3ccccc32)=N\Nc2nc(-c3cc(C(F)(F)F)cc(C(F)(F)F)c3)cs2)cc(C(F)(F)F)c1` ?
Solution: 256 µg/mL

Exercise: Follow-up entry: `Fc1ccc(-c2csc(N/N=C(/Cn3nnc4ccccc43)c3ccc(Cl)cc3)n2)cc1`
Solution: 128 µg/mL

Exercise: Follow-up entry: `O=[N+]([O-])c1ccc(/C(Cn2nnc3ccccc32)=N\Nc2nc(-c3ccc(Cl)cc3)cs2)cc1`
Solution: 128 µg/mL

As a next step, examine the molecule that follows.
Exercise: Quick one: MBC of `Fc1ccc(/C(Cn2nnc3ccccc32)=N\Nc2nc(-c3ccc(F)cc3)cs2)cc1` ?
Solution: 128 µg/mL
